# System tested: native human MET on living cells (human, UniProt P08581 25-1390)
# Sequence (P08581 25-1390): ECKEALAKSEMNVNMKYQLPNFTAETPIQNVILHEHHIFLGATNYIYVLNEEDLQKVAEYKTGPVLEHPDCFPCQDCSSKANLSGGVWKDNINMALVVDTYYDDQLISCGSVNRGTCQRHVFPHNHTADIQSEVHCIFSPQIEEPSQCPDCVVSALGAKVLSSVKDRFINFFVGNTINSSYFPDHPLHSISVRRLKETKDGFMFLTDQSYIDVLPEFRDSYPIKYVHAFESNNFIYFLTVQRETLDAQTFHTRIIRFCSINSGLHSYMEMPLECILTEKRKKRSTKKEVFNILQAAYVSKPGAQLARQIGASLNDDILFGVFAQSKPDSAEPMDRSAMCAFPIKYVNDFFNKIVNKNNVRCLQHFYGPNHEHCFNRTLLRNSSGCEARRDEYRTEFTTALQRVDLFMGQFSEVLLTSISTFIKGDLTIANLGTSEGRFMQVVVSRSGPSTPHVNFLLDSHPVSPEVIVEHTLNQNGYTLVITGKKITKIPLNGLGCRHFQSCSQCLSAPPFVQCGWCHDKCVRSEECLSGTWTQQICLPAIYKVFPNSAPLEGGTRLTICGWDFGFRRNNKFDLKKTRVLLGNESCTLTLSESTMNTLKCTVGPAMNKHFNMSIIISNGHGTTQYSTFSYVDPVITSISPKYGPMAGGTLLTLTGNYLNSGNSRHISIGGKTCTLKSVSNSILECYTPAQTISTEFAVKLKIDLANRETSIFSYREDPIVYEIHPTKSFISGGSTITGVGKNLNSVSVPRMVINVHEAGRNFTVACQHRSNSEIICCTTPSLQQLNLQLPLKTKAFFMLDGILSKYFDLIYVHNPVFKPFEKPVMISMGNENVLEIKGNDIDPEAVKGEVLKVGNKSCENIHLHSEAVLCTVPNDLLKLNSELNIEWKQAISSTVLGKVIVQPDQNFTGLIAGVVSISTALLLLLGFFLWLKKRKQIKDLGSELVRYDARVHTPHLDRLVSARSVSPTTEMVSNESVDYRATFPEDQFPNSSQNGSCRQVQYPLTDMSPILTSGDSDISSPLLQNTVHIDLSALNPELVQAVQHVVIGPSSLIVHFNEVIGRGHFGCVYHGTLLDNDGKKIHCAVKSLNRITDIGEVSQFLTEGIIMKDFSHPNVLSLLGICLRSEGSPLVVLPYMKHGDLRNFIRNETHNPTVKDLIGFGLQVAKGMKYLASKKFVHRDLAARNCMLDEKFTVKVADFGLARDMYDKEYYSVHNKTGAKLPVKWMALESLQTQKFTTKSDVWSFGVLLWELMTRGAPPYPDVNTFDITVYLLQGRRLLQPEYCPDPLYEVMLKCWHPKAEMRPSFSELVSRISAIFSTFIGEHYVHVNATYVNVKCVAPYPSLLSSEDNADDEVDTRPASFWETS
# Experiment description: cell-based or functional assay
Experimental endpoint: scatter score 0-4, HPAF-II, 0.333 nM (score)
Numbers only, in score.

Field: example entries. Status: answers known.
71A3 chimeric llama-human IgG1 mAb (antibody, V domains shown, llama VH on human IgG1 CH1-CH2-CH3, llama VL on human lambda CL) VH: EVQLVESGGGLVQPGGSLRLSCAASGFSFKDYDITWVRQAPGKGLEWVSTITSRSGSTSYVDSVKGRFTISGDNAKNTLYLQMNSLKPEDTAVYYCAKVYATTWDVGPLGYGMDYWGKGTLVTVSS VL: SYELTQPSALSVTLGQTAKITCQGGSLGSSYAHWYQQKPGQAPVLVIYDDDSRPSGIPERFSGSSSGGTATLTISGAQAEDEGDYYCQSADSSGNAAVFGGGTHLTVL    4
71D4 chimeric llama-human IgG1 mAb (antibody, V domains shown, llama VH on human IgG1 CH1-CH2-CH3, llama VL on human lambda CL) VH: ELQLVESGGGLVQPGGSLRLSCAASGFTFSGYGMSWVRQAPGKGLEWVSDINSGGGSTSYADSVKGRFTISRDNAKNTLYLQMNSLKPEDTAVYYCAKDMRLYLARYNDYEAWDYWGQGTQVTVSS VL: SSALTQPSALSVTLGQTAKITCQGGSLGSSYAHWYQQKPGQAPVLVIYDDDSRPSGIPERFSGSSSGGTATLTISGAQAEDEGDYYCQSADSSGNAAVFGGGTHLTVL    0

Pending binder:
stdin: Would you mind telling me what scatter score 0-4, HPAF-II, 0.333 nM value was observed for 72F8 chimeric llama-human IgG1 mAb (antibody, V domains shown, llama VH on human IgG1 CH1-CH2-CH3, llama VL on human lambda CL) VH: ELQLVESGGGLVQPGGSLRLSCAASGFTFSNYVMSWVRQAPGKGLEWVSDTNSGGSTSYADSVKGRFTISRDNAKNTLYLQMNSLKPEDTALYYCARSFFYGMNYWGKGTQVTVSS VL: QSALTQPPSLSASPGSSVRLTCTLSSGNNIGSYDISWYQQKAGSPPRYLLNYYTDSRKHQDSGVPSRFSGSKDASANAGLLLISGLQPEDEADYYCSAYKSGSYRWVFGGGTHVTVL ?
stdout: 0
